Reference source for all entries: ChEMBL document CHEMBL1131951

- Test system: Influenza B virus
- method: Inhibitory activity against sialidase of influenza B
- Format: functional, organism-based
measurement_name: pIC50
Give bare numbers, as −log10 of the molar value.

Below: 5 compounds and their reported pIC50.
compound	target_of_assay	measurement_name	experimental_result
CC(=O)N[C@H]1[C@H]([C@H](O)[C@H](O)CO)OC(C(=O)O)=C[C@@H]1NC(=N)N [ZANAMIVIR]	Influenza B virus	pIC50	8.40
CCN(CC)C(=O)[C@@H]1OC(C(=O)O)=C[C@H](N)[C@H]1NC(C)=O	Influenza B virus	pIC50	6.44
CCC(CC)C(O)[C@@H]1OC(C(=O)O)=C[C@H](N)[C@H]1NC(C)=O (stereo partly specified)	Influenza B virus	pIC50	5.13
CCC(CC)O[C@@H]1OC(C(=O)O)=C[C@H](N)[C@H]1NC(C)=O	Influenza B virus	pIC50	4.38
CCC(CC)C(=O)[C@@H]1OC(C(=O)O)=C[C@H](N)[C@H]1NC(C)=O	Influenza B virus	pIC50	6.33

## Task Value lookup for pIC50; key = CCC(CC)O[C@@H]1C=C(C(=O)O)C[C@H](N)[C@H]1NC(C)=O [OSELTAMIVIR CARBOXYLATE]
## Result 7.49
